Provenance of the data: patent US10179767B2

Attribute: IC50
- ASSAY_TARGET: hNav1.7 (Homo sapiens, UniProt Q15858)
- Sequence (Q15858 whole entry): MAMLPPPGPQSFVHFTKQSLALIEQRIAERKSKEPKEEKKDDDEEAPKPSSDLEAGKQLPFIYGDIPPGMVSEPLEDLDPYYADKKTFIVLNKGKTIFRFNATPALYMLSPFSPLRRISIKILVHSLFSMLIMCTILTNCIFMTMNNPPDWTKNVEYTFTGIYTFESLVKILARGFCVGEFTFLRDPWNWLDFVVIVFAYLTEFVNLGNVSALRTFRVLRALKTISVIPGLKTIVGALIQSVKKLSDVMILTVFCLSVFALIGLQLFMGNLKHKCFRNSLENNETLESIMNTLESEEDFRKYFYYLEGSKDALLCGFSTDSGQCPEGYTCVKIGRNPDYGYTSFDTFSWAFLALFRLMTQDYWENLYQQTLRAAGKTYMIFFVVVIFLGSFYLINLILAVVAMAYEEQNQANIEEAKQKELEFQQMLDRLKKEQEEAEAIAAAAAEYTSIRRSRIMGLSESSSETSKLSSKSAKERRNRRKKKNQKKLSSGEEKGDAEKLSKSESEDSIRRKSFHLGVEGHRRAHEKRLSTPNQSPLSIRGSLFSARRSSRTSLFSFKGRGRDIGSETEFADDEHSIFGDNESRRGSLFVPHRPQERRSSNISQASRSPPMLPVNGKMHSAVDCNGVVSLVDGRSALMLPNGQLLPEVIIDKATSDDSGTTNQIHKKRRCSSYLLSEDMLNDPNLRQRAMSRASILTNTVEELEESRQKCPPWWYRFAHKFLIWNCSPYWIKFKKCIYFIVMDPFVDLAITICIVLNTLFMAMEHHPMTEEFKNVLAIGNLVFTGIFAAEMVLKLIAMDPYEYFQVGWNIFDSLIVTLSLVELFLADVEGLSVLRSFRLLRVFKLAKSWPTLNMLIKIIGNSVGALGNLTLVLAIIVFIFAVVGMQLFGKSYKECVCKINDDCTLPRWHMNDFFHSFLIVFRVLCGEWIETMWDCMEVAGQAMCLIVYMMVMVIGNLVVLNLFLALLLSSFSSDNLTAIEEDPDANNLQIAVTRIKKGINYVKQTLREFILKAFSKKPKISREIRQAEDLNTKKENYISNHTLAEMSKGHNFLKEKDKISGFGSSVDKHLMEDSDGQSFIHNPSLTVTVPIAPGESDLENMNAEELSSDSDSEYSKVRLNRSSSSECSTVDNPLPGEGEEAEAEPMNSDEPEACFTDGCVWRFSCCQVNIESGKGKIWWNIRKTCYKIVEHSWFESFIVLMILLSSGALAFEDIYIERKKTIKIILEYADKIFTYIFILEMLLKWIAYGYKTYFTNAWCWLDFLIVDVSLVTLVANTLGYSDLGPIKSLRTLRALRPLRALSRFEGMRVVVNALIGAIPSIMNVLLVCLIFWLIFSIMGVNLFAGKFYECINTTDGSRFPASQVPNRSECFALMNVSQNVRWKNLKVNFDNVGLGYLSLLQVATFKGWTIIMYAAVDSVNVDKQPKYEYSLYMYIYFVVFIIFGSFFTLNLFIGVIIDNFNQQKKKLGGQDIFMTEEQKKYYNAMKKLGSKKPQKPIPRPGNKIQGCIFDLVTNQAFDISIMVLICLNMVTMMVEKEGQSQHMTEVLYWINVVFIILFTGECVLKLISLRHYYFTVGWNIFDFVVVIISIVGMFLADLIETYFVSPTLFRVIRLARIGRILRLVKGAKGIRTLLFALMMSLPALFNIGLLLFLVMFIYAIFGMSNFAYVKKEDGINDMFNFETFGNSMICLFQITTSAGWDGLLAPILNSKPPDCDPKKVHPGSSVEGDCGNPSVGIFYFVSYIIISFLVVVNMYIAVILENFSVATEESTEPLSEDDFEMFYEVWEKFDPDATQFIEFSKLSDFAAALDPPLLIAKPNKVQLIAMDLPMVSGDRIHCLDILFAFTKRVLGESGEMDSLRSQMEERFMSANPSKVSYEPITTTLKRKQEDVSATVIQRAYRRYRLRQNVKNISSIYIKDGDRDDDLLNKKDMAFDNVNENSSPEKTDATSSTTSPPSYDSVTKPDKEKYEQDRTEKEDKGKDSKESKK
- Sequence (Q07699 19-218 partner): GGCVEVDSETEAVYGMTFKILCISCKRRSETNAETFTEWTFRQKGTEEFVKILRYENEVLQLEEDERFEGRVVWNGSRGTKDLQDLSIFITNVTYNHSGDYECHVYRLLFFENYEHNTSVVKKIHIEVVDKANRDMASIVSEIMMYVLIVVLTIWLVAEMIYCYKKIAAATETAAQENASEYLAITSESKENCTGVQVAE
- ASSAY_METHOD_TEXT: Tritiated sulfonamide binding to membranes from cells expressing hNav1.7 and the β1 subunit (Nav 1.7 ligand binding assay, competitive)
- CONDITIONS: competition with 100 pM [3H]compound, room temperature, 18 h
QUANTITY_KIND: IC50 (nM)

1) C[C@H](c1ccc(Cl)c(Cl)c1)N1CCC(F)(COc2cc(F)c(C(=O)NS(C)(=O)=O)cc2C2CC2)CC1 (single isomer, unassigned) :: 6.4
2) CS(=O)(=O)NC(=O)c1cc(C2CC2)c(OCC2CCN(Cc3cc(Cl)cc(C(F)(F)F)c3C#N)CC2)cc1F :: 6.6
3) C[C@@H]1[C@H](Oc2cc(F)c(C(=O)NS(C)(=O)=O)cc2C2CC2)CCCN1Cc1cc(Cl)cc(Cl)c1 :: 2.4
4) C[C@@H](c1ccc(F)c(Cl)c1)N1CCC(F)(COc2cc(F)c(C(=O)NS(C)(=O)=O)cc2C2CC2)CC1 (single isomer, unassigned) :: 4.7
5) C[C@H](c1ccc(F)cc1Cl)N1CCC(F)(COc2cc(F)c(C(=O)NS(C)(=O)=O)cc2C2CC2)CC1 (single isomer, unassigned) :: 6
